These measurements were taken from patent US11389456B2.

test: Stability in human plasma; format: in vitro ADME; conditions: read-out: Plasma Stability T1/2
REPORTED ENDPOINT: half-life at 2 μM (h)

Record excerpt, results attached:
>>> assay_value("O=C(O)c1nn[nH]c1Sc1ccc2ccccc2c1 [Example I-031]")
1.25
>>> assay_value("CCCC(C)c1ccc(Oc2[nH]nnc2C(=O)O)cc1 (stereo not shown) [Example I-273]")
2.2
>>> assay_value("O=C(O)c1nn[nH]c1Oc1cccc(C2CCCCC2)c1 [Example I-268]")
1.84

P = CS(=O)(=O)c1ccc(-c2ccc(Oc3[nH]nnc3C(=O)O)cc2)cc1 [Example I-167]
Q = CCCC(C)c1cccc(Oc2[nH]nnc2C(=O)O)c1 (stereo not shown) [Example I-277]
Asked: Which of these two has the smaller recorded half-life at 2 μM: P or Q ? Answer = label.
Given back: Q

I = Cc1cc(Oc2[nH]nnc2C(=O)O)ccc1Br [Example I-037]
II = O=C(O)c1nn[nH]c1Oc1cccc(S(F)(F)(F)(F)F)c1 [Example I-269]
Asked: Just tell me: smaller half-life at 2 μM value, I or II ? Answer by quoting the chosen item's label.
Given back: I
